The reported numbers originate from the supplement of paper PMC6992640.

Item-by-item account of cell viability of combination
- System: WHIM2 (cells of a triple-negative basal-like breast cancer xenograft)
- EXPERIMENT NOTES: cell viability of combination (% of vehicle); higher = less cytotoxic
- EXPERIMENTAL PARAMETERS: 1 µM; 72 h; partner dose: 10 nM
Structures can show the parent of a compound that is named as a salt.

Answered cases to consult:
Per the records, this molecule ( Cc1ccc(C(=O)N(CCCN)C(c2nc3cc(Cl)ccc3c(=O)n2Cc2ccccc2)C(C)C)cc1 (configuration not stated) + CN(C)C/C=C/C(=O)Nc1cc2c(Nc3ccc(F)c(Cl)c3)ncnc2cc1O[C@H]1CCOC1 ) has cell viability of combination equal to 35.8

The molecule identified as CN1CCN(c2ccc(C(=O)/N=c3\[nH][nH]c4ccc(Cc5cc(F)cc(F)c5)cc34)c(NC3CCOCC3)c2)CC1 [Entrectinib] + CN(C)C/C=C/C(=O)Nc1cc2c(Nc3ccc(F)c(Cl)c3)ncnc2cc1O[C@H]1CCOC1 registered its cell viability of combination at 38.5

// field: cell viability of combination; key: CN(C)CC=CC(=O)Nc1cc2c(Nc3ccc(F)c(Cl)c3)ncnc2cc1OC1CCOC1.O=C(O)C=CC(=O)O.O=C(O)C=CC(=O)O (configuration not stated) [Afatinib dimaleate] + CN(C)C/C=C/C(=O)Nc1cc2c(Nc3ccc(F)c(Cl)c3)ncnc2cc1O[C@H]1CCOC1 ; value = 35.4

Sure, the documented cell viability of combination for CC[C@H](C)[C@H]1O[C@]2(CC[C@@H]1C)C[C@@H]1C[C@@H](C/C=C(\C)[C@@H](O[C@H]3C[C@H](OC)[C@@H](O[C@H]4C[C@H](OC)[C@@H](O)[C@H](C)O4)[C@H](C)O3)[C@@H](C)/C=C/C=C3\CO[C@@H]4[C@H](O)C(C)=C[C@@H](C(=O)O1)[C@]34O)O2 [Ivermectin] + CN(C)C/C=C/C(=O)Nc1cc2c(Nc3ccc(F)c(Cl)c3)ncnc2cc1O[C@H]1CCOC1 is 44.5

---
Consider CC[C@@]1(O)C(=O)OCc2c1cc1n(c2=O)Cc2cc3c(CN(C)C)c(O)ccc3nc2-1 [Topotecan] + CN(C)C/C=C/C(=O)Nc1cc2c(Nc3ccc(F)c(Cl)c3)ncnc2cc1O[C@H]1CCOC1 . Its measured cell viability of combination is 31.4

Recorded cell viability of combination (molecule COc1nc2ccc(Br)cc2cc1[C@@H](c1ccccc1)[C@@](O)(CCN(C)C)c1cccc2ccccc12 [Bedaquiline fumarate] + CN(C)C/C=C/C(=O)Nc1cc2c(Nc3ccc(F)c(Cl)c3)ncnc2cc1O[C@H]1CCOC1 ): 49

Form: molecule = Cc1nc(NC(=O)N2CCCC2C(N)=O)sc1-c1ccnc(C(C)(C)C(F)(F)F)c1 (configuration not stated) + CN(C)C/C=C/C(=O)Nc1cc2c(Nc3ccc(F)c(Cl)c3)ncnc2cc1O[C@H]1CCOC1 ; cell viability of combination = 37.9

====

- Test system: HCI11 (cells of an ER-positive luminal breast cancer xenograft)
- EXPERIMENT NOTES: cell viability (% of vehicle); higher = less cytotoxic
- EXPERIMENTAL PARAMETERS: 10 µM; 72 h
MEASURED PROPERTY: cell viability

response.value for CCc1cccc2c3c([nH]c12)C(CC)(CC(=O)O)OCC3 (centres undefined) (field: cell viability) = 97.2

Lab book: cell viability of CN1CCN(c2c(F)cc3c(=O)c(C(=O)O)cn4c3c2OCN4C)CC1 noted as 138

Item: Clc1ccc(C(Cn2ccnc2)OCc2csc3c(Cl)cccc23)c(Cl)c1.O=[N+]([O-])O (centres undefined) [Sertaconazole nitrate] | cell viability: 103

The recorded cell viability for entry Cl.O=S(=O)(c1cccc2cnccc12)N1CCCNCC1 [Fasudil (HA-1077) HCl] equals 76.2

====

- Test system: UCD52 (cells of a triple-negative basal-like breast cancer xenograft)
- EXPERIMENT NOTES: cell viability of combination (% of vehicle); higher = less cytotoxic
- EXPERIMENTAL PARAMETERS: 1 µM; 72 h; partner dose: 10 nM
Binary call on cell viability of combination with cut-off 40: strictly below means yes, and equality or higher means no.

Past entries and their recorded results:
Does COC(=O)c1ccc2c(c1)NC(=O)C2=C(Nc1ccc(N(C)C(=O)CN2CCN(C)CC2)cc1)c1ccccc1 [Nintedanib (BIBF 1120)] + CC(C)C[C@H](NC(=O)[C@H](CCc1ccccc1)NC(=O)CN1CCOCC1)C(=O)N[C@@H](Cc1ccccc1)C(=O)N[C@@H](CC(C)C)C(=O)[C@@]1(C)CO1 have cell viability of combination strictly under 40?
yes

Determine if CC(C)c1nc(N(C)S(C)(=O)=O)nc(-c2ccc(F)cc2)c1C=CC(O)CC(O)CC(=O)[O-].CC(C)c1nc(N(C)S(C)(=O)=O)nc(-c2ccc(F)cc2)c1C=CC(O)CC(O)CC(=O)[O-].[Ca+2] (configuration not stated) [Rosuvastatin Calcium] + CC(C)C[C@H](NC(=O)[C@H](CCc1ccccc1)NC(=O)CN1CCOCC1)C(=O)N[C@@H](Cc1ccccc1)C(=O)N[C@@H](CC(C)C)C(=O)[C@@]1(C)CO1 shows cell viability of combination strictly lower than 40.
no

In the record for Nc1ncn(C2OC(CO)C(O)C2O)c(=O)n1 (configuration not stated) [5-Azacytidine] + CC(C)C[C@H](NC(=O)[C@H](CCc1ccccc1)NC(=O)CN1CCOCC1)C(=O)N[C@@H](Cc1ccccc1)C(=O)N[C@@H](CC(C)C)C(=O)[C@@]1(C)CO1 , is cell viability of combination less than 40?
no

Could you please tell me whether cell viability of combination recorded for Clc1ccc(C(Cn2ccnc2)OCc2ccsc2Cl)c(Cl)c1 (configuration not stated) [Tioconazole] + CC(C)C[C@H](NC(=O)[C@H](CCc1ccccc1)NC(=O)CN1CCOCC1)C(=O)N[C@@H](Cc1ccccc1)C(=O)N[C@@H](CC(C)C)C(=O)[C@@]1(C)CO1 is less than 40?
no

Could you please tell me whether cell viability of combination recorded for CN1CCN(CCCN2c3ccccc3Sc3ccc(C(F)(F)F)cc32)CC1.Cl.Cl [Trifluoperazine 2HCl] + CC(C)C[C@H](NC(=O)[C@H](CCc1ccccc1)NC(=O)CN1CCOCC1)C(=O)N[C@@H](Cc1ccccc1)C(=O)N[C@@H](CC(C)C)C(=O)[C@@]1(C)CO1 is less than 40?
no

Now consider a different compound.
In the record for Cc1nc(NC(=O)N2CCCC2C(N)=O)sc1-c1ccnc(C(C)(C)C(F)(F)F)c1 (configuration not stated) + CC(C)C[C@H](NC(=O)[C@H](CCc1ccccc1)NC(=O)CN1CCOCC1)C(=O)N[C@@H](Cc1ccccc1)C(=O)N[C@@H](CC(C)C)C(=O)[C@@]1(C)CO1 , is cell viability of combination less than 40?
no

====

Readings of cell viability for the listed compounds
- Test system: HCI16 (cells of a triple-negative basal-like breast cancer xenograft)
- EXPERIMENT NOTES: cell viability (% of vehicle); higher = less cytotoxic
- EXPERIMENTAL PARAMETERS: 10 µM; 72 h
Where a name gives a salt, the structure may show the parent alone.
Form rule: numeric answer, no unit written next to it.

// known answers, use as guide
Response field cell viability (HCI16) for item Nc1ccn(C2OC(CO)C(O)C2O)c(=O)n1 (centres undefined) [Cytarabine] : 83.3

Kindly note: HCI16, CN(CCOc1ccc(NS(C)(=O)=O)cc1)CCc1ccc(NS(C)(=O)=O)cc1 [Dofetilide] , cell viability value reported: 89.3

Lab note: compound Nc1ccn([C@@H]2O[C@H](CO)[C@@H](O)C2(F)F)c(=O)n1 [Gemcitabine HCl] tested on HCI16; recorded cell viability was 107

More entries:
Known value: HCI16 cell viability of the compound CC(C)C(N)C(=O)OCC(CO)OCn1cnc2c(=O)nc(N)[nH]c21.Cl (centres undefined) [Valganciclovir HCl] equals 111

====

- Tested on: UCD52
- EXPERIMENT NOTES: cell viability (% of vehicle); higher = less cytotoxic
- EXPERIMENTAL PARAMETERS: 10 µM; 72 h
Rule: cell viability below 80 gives Criterion met. Equal to or above 80 gives Criterion not met.

Regarding CCOC(=O)C1=C(COCCN)NC(C)=C(C(=O)OC)C1c1ccccc1Cl.O=S(=O)(O)c1ccccc1 (stereo unspecified) [Amlodipine Besylate] , kindly confirm whether its cell viability is beneath 80.
Criterion met

API: query returns whether the compound falls strictly under 80 in cell viability. Query: CC(C)(C)NCC(O)COc1nsnc1N1CCOCC1.O=C(O)C=CC(=O)O (stereo unspecified) [Timolol Maleate]
Criterion not met

Field: below-cutoff. Rule: recorded cell viability strictly less than 80. Subject: C1N2CN3CN1CN(C2)C3
Criterion not met

A record lists Cc1nccn1CC1CCc2c(c3ccccc3n2C)C1=O.Cl.O.O (stereo unspecified) [Ondansetron hydrochloride dihydrate] . Is its cell viability below 80?
Criterion not met

Dear reviewer, please state whether CCCCOc1ccc(CC(=O)NO)cc1 has cell viability strictly beneath 80.
Criterion not met

Is cell viability of CO[C@H]1C[C@@H]2CC[C@@H](C)[C@@](O)(O2)C(=O)C(=O)N2CCCC[C@H]2C(=O)O[C@H]([C@H](C)C[C@@H]2CC[C@@H](O)[C@H](OC)C2)CC(=O)[C@H](C)/C=C(\C)[C@@H](O)[C@@H](OC)C(=O)[C@H](C)C[C@H](C)/C=C/C=C/C=C/1C [Rapamycin (Sirolimus)] strictly below 80?
Criterion met

Consider the compound COc1cc(C)c(C=CC(C)=CC=CC(C)=CC(=O)O)c(C)c1C . Is its cell viability strictly less than 80?
Criterion not met

Does this compound meet the criterion cell viability < 80? Cc1ccc(S(=O)(=O)NC(=O)NN2CC3CCCC3C2)cc1 (stereo unspecified) [Gliclazide]
Criterion not met

Continuing:
In the record for CCCCc1oc2ccc(NS(C)(=O)=O)cc2c1C(=O)c1ccc(OCCCN(CCCC)CCCC)cc1 , is cell viability less than 80?
Criterion met

cell viability under 80? Item: COc1ccc(C=Cc2cc(OC)c(OC)c(OC)c2)cc1OP(=O)([O-])[O-].[Na+].[Na+] [Fosbretabulin (Combretastatin A4 Phosphate (CA4P)) Disodium]
Criterion not met

Quick check: does O=C(NC1CCN(CCCCC2(C(=O)NCC(F)(F)F)c3ccccc3-c3ccccc32)CC1)c1ccccc1-c1ccc(C(F)(F)F)cc1 [Lomitapide] have cell viability under 80?
Criterion met

# TODO verify cell viability < 80 strictly for this compound: CN(C)CCOC(c1ccccc1)c1ccccc1.Cl [Diphenhydramine HCl]
Criterion not met
